System: A549
EXPERIMENT: Cytotoxicity against human A549 cells
Format: functional
TEST PARAMETERS: read-out: LC50 (the source's name)
Rule: CC50 below 2 µg/mL gives 1, anything at or above gives -1.

>  <COMPOUND>
CC(C)[C@@H](C(=O)O)N1CC(CC[C@H]2/C(=C/OS(=O)(=O)[O-])CC[C@H]3[C@]2(C)CC[C@H]2C(C)(C)CCC[C@]32C)=CC1=O.[Na+]

>  <CLASSIFICATION>
1

$$$$
>  <COMPOUND>
C[C@H](C(=O)O)N1CC=C(CC[C@H]2/C(=C/OS(=O)(=O)[O-])CC[C@H]3[C@]2(C)CC[C@H]2C(C)(C)CCC[C@]32C)C1=O.[Na+]

>  <CLASSIFICATION>
1

$$$$
>  <COMPOUND>
CC1(C)CCC[C@]2(C)[C@H]3CC/C(=C\OS(=O)(=O)[O-])[C@H](CCC4=CC(=O)N(CCS(=O)(=O)O)C4)[C@@]3(C)CC[C@@H]12.[Na+]

>  <CLASSIFICATION>
-1

$$$$
>  <COMPOUND>
C/C(=C/C(=O)NCCS(=O)(=O)[O-])CCCCC[C@H](C)O.[Na+]

>  <CLASSIFICATION>
-1

$$$$
>  <COMPOUND>
CC1(C)CCC[C@]2(C)[C@H]3CC/C(=C\OS(=O)(=O)[O-])[C@H](CCC4=CCN(CC(=O)O)C4=O)[C@@]3(C)CC[C@@H]12.[Na+]

>  <CLASSIFICATION>
1

$$$$
>  <COMPOUND>
CC(=O)CCCCC/C(C)=C\C(=O)NCCS(=O)(=O)O

>  <CLASSIFICATION>
-1

$$$$

Prompt line: In the record for COc1cccc2c1C(=O)c1c(O)c3c(c(O)c1C2=O)C[C@@](O)(C(=O)CO)C[C@@H]3O[C@H]1C[C@H](N)[C@H](O)[C@H](C)O1 , is CC50 less than 2 µg/mL?
Response line: 1

Prompt line: Please indicate whether the reported CC50 of CC1(C)CCC[C@]2(C)[C@H]3CC/C(=C\OS(=O)(=O)[O-])[C@H](CCc4ccoc4)[C@@]3(C)CC[C@@H]12.CN(C)c1n(C)c(=O)c2c([n+]1C)N(C)CN2C is strictly below 2 µg/mL.
Response line: 1

Prompt line: Quick check: does C[S+]([O-])CCCN1CC=C(CC[C@H]2/C(=C/OS(=O)(=O)[O-])CC[C@H]3[C@]2(C)CC[C@H]2C(C)(C)CCC[C@]32C)C1=O.[Na+] (stereo partly specified) have CC50 under 2 µg/mL?
Response line: -1

Prompt line: Is CC50 of CC1(C)CCC[C@]2(C)[C@H]3CC/C(=C\OS(=O)(=O)[O-])[C@H](CCc4ccoc4)[C@@]3(C)CC[C@@H]12.C[N+](C)=C(N)N strictly below 2 µg/mL?
Response line: 1

###

Recorded measurements of MIC, one per entry
System: Pyricularia grisea
EXPERIMENT: Inhibition of Magnaporthe grisea Guy 11 isocitrate lyase
Give the number; µg/mL is assumed, so skip it.

>  <COMPOUND>
CC1(C)CCC[C@]2(C)[C@H]3CC/C(=C\OS(=O)(=O)[O-])[C@H](CCC4=CCN(CC(=O)O)C4=O)[C@@]3(C)CC[C@@H]12.[Na+]

>  <MIC (µg/mL)>
62

$$$$
>  <COMPOUND>
CC1(C)CCC[C@]2(C)[C@H]3CC/C(=C\OS(=O)(=O)[O-])[C@H](CCc4ccoc4)[C@@]3(C)CC[C@@H]12.CN(C)c1n(C)c(=O)c2c([n+]1C)N(C)CN2C

>  <MIC (µg/mL)>
28

$$$$
>  <COMPOUND>
C[C@H](C(=O)O)N1CC=C(CC[C@H]2/C(=C/OS(=O)(=O)[O-])CC[C@H]3[C@]2(C)CC[C@H]2C(C)(C)CCC[C@]32C)C1=O.[Na+]

>  <MIC (µg/mL)>
48

$$$$
>  <COMPOUND>
O=C(O)CC[N+](=O)[O-]

>  <MIC (µg/mL)>
2.5

$$$$
>  <COMPOUND>
CC1(C)CCC[C@]2(C)[C@H]3CC/C(=C\OS(=O)(=O)[O-])[C@H](CCc4ccoc4)[C@@]3(C)CC[C@@H]12.C[N+](C)=C(N)N

>  <MIC (µg/mL)>
51

$$$$

Prompt line: Give reported MIC value for CC1(C)CCC[C@]2(C)[C@H]3CC/C(=C\OS(=O)(=O)[O-])[C@H](CCC4=CCN(CCS(=O)(=O)O)C4=O)[C@@]3(C)CC[C@@H]12.[Na+]
Response line: 90

Prompt line: Report MIC for CC(C)[C@@H](C(=O)O)N1CC(CC[C@H]2/C(=C/OS(=O)(=O)[O-])CC[C@H]3[C@]2(C)CC[C@H]2C(C)(C)CCC[C@]32C)=CC1=O.[Na+]
Response line: 64

Prompt line: Kindly indicate its recorded MIC. Item: C[S+]([O-])CCCN1CC=C(CC[C@H]2/C(=C/OS(=O)(=O)[O-])CC[C@H]3[C@]2(C)CC[C@H]2C(C)(C)CCC[C@]32C)C1=O.[Na+] (stereo partly specified)
Response line: 24

Prompt line: Give MIC for CC1(C)CCC[C@]2(C)[C@H]3CC/C(=C\OS(=O)(=O)[O-])[C@H](CCC4=CC(=O)N(CCS(=O)(=O)O)C4)[C@@]3(C)CC[C@@H]12.[Na+]
Response line: 50

###

System: Kocuria rhizophila
EXPERIMENT: Antimicrobial activity against Kocuria rhizophila NBRC 12708 after 24 hrs by two-fold broth dilution method
Format: functional
TEST PARAMETERS: NBRC 12708, 24 h
READOUT LABEL: MIC

The following compounds have reported results that may help.
>  <SMILES ENTRY>
CC(C)[C@@H](C(=O)O)N1CC(CC[C@H]2/C(=C/OS(=O)(=O)[O-])CC[C@H]3[C@]2(C)CC[C@H]2C(C)(C)CCC[C@]32C)=CC1=O.[Na+]

>  <SYSTEM>
Kocuria rhizophila

>  <READOUT LABEL>
MIC

>  <RESULT>
> 100 µg/mL

$$$$
>  <SMILES ENTRY>
C[C@H](C(=O)O)N1CC=C(CC[C@H]2/C(=C/OS(=O)(=O)[O-])CC[C@H]3[C@]2(C)CC[C@H]2C(C)(C)CCC[C@]32C)C1=O.[Na+]

>  <SYSTEM>
Kocuria rhizophila

>  <READOUT LABEL>
MIC

>  <RESULT>
> 100 µg/mL

$$$$

Prompt line: Annotate the compound CC1(C)CCC[C@]2(C)[C@H]3CC/C(=C\OS(=O)(=O)[O-])[C@H](CCC4=CCN(CC(=O)O)C4=O)[C@@]3(C)CC[C@@H]12.[Na+] with its measured MIC.
Response line: > 100 µg/mL

###

Tested on: Kocuria rhizophila
EXPERIMENT: Antimicrobial activity against Kocuria rhizophila NBRC 12708 after 24 hrs by two-fold broth dilution method
Format: functional
TEST PARAMETERS: NBRC 12708, 24 h
Quick list: MIC per entry.

Look over these answered cases.
>  <SMILES ENTRY>
CC1(C)CCC[C@]2(C)[C@H]3CC/C(=C\OS(=O)(=O)[O-])[C@H](CCc4ccoc4)[C@@]3(C)CC[C@@H]12.CN(C)c1n(C)c(=O)c2c([n+]1C)N(C)CN2C

>  <MIC>
6.25 µg/mL

$$$$
>  <SMILES ENTRY>
CC1(C)S[C@@H]2[C@H](NC(=O)[C@H](N)c3ccccc3)C(=O)N2[C@H]1C(=O)O

>  <MIC>
0.39 µg/mL

$$$$
>  <SMILES ENTRY>
CC1(C)CCC[C@]2(C)[C@H]3CC/C(=C\OS(=O)(=O)[O-])[C@H](CCC4=CCN(CCS(=O)(=O)O)C4=O)[C@@]3(C)CC[C@@H]12.[Na+]

>  <MIC>
> 100 µg/mL

$$$$
>  <SMILES ENTRY>
CC1(C)CCC[C@]2(C)[C@H]3CC/C(=C\OS(=O)(=O)[O-])[C@H](CCc4ccoc4)[C@@]3(C)CC[C@@H]12.C[N+](C)=C(N)N

>  <MIC>
> 100 µg/mL

$$$$

Prompt line: Look up and state reported MIC for CC(=O)CCCCC/C(C)=C\C(=O)NCCS(=O)(=O)O
Response line: > 100 µg/mL

Prompt line: Specify measured MIC for CC1(C)CCC[C@]2(C)[C@H]3CC/C(=C\OS(=O)(=O)[O-])[C@H](CCC4=CC(=O)N(CCS(=O)(=O)O)C4)[C@@]3(C)CC[C@@H]12.[Na+] .
Response line: > 100 µg/mL
